Origin of measurements: ChEMBL document CHEMBL4219088

Target: PI3-kinase p110-alpha/p85-alpha (Homo sapiens)
Sequence (P27986 whole entry): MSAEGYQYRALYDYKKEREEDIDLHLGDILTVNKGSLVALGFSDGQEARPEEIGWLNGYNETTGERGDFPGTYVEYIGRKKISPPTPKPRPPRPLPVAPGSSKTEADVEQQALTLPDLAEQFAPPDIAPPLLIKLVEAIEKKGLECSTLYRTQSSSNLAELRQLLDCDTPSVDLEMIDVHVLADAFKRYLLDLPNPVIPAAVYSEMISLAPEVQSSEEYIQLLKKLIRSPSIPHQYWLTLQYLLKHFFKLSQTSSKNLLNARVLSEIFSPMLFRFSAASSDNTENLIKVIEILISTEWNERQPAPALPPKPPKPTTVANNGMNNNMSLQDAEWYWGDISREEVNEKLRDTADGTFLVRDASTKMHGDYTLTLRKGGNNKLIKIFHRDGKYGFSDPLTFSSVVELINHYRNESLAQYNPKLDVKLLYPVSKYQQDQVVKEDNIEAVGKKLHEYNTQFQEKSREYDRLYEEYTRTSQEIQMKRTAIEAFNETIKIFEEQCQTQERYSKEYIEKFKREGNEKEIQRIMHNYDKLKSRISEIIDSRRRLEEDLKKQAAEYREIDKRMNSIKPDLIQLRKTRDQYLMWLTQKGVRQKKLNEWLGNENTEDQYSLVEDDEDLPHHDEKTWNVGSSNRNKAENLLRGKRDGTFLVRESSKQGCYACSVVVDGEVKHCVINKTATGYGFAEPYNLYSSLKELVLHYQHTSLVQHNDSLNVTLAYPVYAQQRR
Sequence (P42336 whole entry): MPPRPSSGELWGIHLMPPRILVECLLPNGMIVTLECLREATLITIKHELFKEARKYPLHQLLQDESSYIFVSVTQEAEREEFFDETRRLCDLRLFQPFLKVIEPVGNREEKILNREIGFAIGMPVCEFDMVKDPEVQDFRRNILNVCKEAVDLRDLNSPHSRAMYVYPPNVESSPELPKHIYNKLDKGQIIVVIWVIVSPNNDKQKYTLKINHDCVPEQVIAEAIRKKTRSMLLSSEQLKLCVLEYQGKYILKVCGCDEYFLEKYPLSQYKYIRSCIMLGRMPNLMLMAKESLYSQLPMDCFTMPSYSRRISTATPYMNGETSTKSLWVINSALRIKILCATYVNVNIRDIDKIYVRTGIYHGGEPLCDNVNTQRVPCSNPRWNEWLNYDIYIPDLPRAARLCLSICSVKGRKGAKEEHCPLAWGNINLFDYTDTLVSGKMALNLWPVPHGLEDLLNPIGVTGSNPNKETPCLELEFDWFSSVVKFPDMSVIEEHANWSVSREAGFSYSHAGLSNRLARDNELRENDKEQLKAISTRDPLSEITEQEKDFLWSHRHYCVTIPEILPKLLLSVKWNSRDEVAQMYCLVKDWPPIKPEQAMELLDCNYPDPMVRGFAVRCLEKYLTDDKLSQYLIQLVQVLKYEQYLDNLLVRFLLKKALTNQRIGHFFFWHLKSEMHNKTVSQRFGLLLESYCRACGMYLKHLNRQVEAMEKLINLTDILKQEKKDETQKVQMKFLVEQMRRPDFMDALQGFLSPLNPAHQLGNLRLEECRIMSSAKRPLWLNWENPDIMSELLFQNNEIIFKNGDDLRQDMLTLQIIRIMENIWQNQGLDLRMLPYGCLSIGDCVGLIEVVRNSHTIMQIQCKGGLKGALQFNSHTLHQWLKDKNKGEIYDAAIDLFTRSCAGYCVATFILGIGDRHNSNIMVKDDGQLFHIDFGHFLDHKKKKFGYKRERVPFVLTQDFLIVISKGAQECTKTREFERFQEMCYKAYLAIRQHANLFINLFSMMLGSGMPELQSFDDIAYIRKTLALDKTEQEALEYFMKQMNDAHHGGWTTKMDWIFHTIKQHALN
Assay: Inhibition of recombinant N-terminal His6-tagged full length PI3K p110alpha (unknown origin)/recombinant untagged full length p85alpha (unknown origin) expressed in baculovirus infected Sf21 insect cells by ELISA
Measure: pIC50
Notebook: values listed as pIC50 are -log10 of the concentration (mol/L).

Using the record for CCCCS(=O)(=O)Nc1cc(-c2ccc3ncnc(NCCN(C)C)c3c2)cnc1OC , report its pIC50.
7.87

---

Test system: HCT-116
Assay: Antiproliferative activity against human HCT116 cells after 72 hrs by sulforhodamine B assay
Type: functional, cell-based
Conditions: HCT-116, 72 h
pIC50: −log10 of the molar value.
Hi, to clarify the labels: y covers pIC50 from 6 upward, n covers anything below 6.

In plain terms: is recorded pIC50 at least 6 for CCCCS(=O)(=O)Nc1cc(-c2ccc3ncnc(NCCCN4CCOCC4)c3c2)cnc1OC ?
n

Identify whether the reported pIC50 of the following compound is 6 or greater: COc1ncc(-c2ccc3ncnc(NCCCN(C)C)c3c2)cc1NS(=O)(=O)c1ccc(F)cc1F
n

Determine whether this compound has pIC50 no lower than 6: CCCCS(=O)(=O)Nc1cc(-c2ccc3ncnc(NCc4ccncc4)c3c2)cnc1OC
n

Does the compound COc1ncc(-c2ccc3ncnc(NCc4ccncc4)c3c2)cc1NS(=O)(=O)c1ccc(F)cc1F have recorded pIC50 that is 6 or more?
n

Does pIC50 meet or surpass 6 for COc1ncc(-c2ccc3ncnc(NCCN(C)C)c3c2)cc1NS(C)(=O)=O ?
n

Could you please find out whether CCCCS(=O)(=O)Nc1cc(-c2ccc3ncnc(NCCN(C)C)c3c2)cnc1OC has pIC50 that meets 6 or exceeds it?
y

Decide: is the reported value of pIC50 for CCCCS(=O)(=O)Nc1cc(-c2ccc3ncnc(NCCCN(C)C)c3c2)cnc1OC equal to or greater than 6?
y

Does pIC50 meet or surpass 6 for CCCCS(=O)(=O)Nc1cc(-c2ccc3ncnc(NCCN4CCOCC4)c3c2)cnc1OC ?
y
